Biological target: RAF proto-oncogene serine/threonine-protein kinase (Homo sapiens)
Sequence (P04049 whole entry): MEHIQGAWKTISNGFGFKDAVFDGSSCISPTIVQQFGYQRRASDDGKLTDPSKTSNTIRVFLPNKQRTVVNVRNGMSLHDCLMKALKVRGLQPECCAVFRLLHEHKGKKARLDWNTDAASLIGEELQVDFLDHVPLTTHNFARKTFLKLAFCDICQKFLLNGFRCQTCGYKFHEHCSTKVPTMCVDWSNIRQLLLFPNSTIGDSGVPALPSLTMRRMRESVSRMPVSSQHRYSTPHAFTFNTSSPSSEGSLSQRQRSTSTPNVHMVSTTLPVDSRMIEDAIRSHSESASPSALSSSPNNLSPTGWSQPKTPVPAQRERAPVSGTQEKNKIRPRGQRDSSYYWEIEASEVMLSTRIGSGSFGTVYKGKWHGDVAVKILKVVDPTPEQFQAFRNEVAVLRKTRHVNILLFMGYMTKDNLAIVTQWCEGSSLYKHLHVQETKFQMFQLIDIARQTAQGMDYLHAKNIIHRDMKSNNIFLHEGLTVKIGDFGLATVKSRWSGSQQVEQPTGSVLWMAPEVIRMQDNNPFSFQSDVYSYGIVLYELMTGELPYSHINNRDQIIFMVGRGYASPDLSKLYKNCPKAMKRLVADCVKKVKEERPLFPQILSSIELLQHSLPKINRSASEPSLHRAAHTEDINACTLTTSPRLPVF
quantity-kind: IC50

## Task Consider the molecule shown here: CC(NC(=O)c1cccc(-c2ccc(NC(=O)Nc3ccc(Cl)c(C(F)(F)F)c3)cc2)c1)c1ccccc1 (stereo unspecified) What is its recorded IC50?
## Result > 50 µM

====

Target: Serine/threonine-protein kinase B-raf (Homo sapiens, UniProt P15056)
Sequence (P15056 whole entry): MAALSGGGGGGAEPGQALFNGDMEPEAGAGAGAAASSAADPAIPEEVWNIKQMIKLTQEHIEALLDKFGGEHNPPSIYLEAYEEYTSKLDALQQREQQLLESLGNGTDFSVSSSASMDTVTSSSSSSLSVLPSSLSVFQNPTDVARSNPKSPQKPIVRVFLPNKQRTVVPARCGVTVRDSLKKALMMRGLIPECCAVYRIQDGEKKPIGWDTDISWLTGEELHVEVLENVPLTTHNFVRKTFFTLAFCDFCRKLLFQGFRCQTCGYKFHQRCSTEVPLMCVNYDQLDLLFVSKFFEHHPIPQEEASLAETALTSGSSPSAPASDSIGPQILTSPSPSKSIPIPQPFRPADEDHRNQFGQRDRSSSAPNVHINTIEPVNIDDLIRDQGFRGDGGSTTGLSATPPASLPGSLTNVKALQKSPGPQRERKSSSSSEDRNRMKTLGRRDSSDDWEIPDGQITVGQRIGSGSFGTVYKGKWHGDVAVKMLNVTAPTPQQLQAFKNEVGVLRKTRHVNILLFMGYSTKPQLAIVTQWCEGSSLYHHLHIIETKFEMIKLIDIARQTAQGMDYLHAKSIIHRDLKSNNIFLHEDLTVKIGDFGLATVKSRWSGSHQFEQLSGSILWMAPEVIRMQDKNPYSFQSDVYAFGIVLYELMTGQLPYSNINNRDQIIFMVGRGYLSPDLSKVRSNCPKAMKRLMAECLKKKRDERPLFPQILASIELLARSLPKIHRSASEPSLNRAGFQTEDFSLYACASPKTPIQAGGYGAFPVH
quantity-kind: IC50

## Task Consider the compound shown here: CC(NC(=O)c1cccc(-c2ccc(NC(=O)Nc3ccc(Cl)c(C(F)(F)F)c3)cc2)c1)c1ccccc1 (stereo unspecified) What is its recorded IC50?
## Result > 50 µM
